Species: Rattus norvegicus
Test: Effect on electron transport protein complex 1 in Wistar-Han rat liver mitochondria using glutamate/malate as substrate assessed as ADP-induced depolarization at 3 ug/mg relative to control
Let's look at some compounds and their measured Activity.
readout.type: Activity (%)

smiles.input: C=C(C[n+]1ccc(N(C)C)cc1)[C@@H]1CC[C@]2(COC(=O)C[n+]3ccc(N(C)C)cc3)CC[C@]3(C)[C@H](CC[C@@H]4[C@@]5(C)CC[C@H](OC(=O)C[n+]6ccc(N(C)C)cc6)C(C)(C)[C@@H]5CC[C@]43C)[C@@H]12.[Br-].[Br-].[Br-]
u: %
experimental.result: 18.5

smiles.input: C=C(C[n+]1ccc(N(C)C)cc1)[C@@H]1CC[C@]2(C(=O)O)CC[C@]3(C)[C@H](CC[C@@H]4[C@@]5(C)CC[C@H](O)C(C)(C)[C@@H]5CC[C@]43C)[C@@H]12.[Br-]
u: %
experimental.result: 19.5

smiles.input: C=C(C)[C@@H]1CC[C@]2(CO)CC[C@]3(C)[C@H](CC[C@@H]4[C@@]5(C)CC[C@H](OC(=O)C[n+]6ccc(N(C)C)cc6)C(C)(C)[C@@H]5CC[C@]43C)[C@@H]12.[Cl-]
u: %
experimental.result: 26.5

smiles.input: C=C(C)[C@@H]1CC[C@]2(COC(=O)C[n+]3ccc(N(C)C)cc3)CC[C@]3(C)[C@H](CC[C@@H]4[C@@]5(C)CC[C@H](OC(=O)C[n+]6ccc(N(C)C)cc6)C(C)(C)[C@@H]5CC[C@]43C)[C@@H]12.[Br-].[Br-]
u: %
experimental.result: 23.4

smiles.input: C=C(C)[C@@H]1CC[C@]2(COC(=O)C[n+]3ccc(N(C)C)cc3)CC[C@]3(C)[C@H](CC[C@@H]4[C@@]5(C)CC[C@H](O)C(C)(C)[C@@H]5CC[C@]43C)[C@@H]12
u: %
experimental.result: 22.5
